# subject-of-test: HGF (hepatocyte growth factor/scatter factor) (UniProt P14210;P14210 P14210:32-494,P14210:495-728)
# Sequence (P14210 32-494, chain 1 of 2): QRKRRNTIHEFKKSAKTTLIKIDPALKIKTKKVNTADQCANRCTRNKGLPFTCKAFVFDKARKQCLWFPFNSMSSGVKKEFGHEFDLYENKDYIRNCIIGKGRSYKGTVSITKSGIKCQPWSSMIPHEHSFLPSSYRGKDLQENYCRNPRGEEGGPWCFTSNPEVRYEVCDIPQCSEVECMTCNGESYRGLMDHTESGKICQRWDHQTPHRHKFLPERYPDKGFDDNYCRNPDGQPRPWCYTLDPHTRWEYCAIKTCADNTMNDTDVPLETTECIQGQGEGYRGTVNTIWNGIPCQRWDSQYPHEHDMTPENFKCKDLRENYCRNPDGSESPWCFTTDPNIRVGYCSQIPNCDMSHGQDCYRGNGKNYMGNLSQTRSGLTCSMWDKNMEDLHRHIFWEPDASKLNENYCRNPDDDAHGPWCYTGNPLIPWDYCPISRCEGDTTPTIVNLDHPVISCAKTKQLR
# Sequence (P14210 495-728, chain 2 of 2): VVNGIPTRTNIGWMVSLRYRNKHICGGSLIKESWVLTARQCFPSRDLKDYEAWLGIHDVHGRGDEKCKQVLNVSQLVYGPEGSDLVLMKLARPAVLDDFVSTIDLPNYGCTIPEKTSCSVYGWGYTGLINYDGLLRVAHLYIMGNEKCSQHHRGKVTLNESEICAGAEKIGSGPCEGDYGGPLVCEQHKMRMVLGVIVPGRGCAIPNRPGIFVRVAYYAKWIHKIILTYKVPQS
# procedure-summary: filter; one or two 5' G
# particulars: tags: R&D Systems
measure: Kd (nM)
// note: answer is a bare numeric in nM

GGCAGACGACUCGCCCGAAGGACGAUGCGGCA (ssRNA, 2'-F pyrimidines) [Tr5] : 28

Quick check: Kd of GGUGUGAACCUGUUUAUGCCAUCUCGAGUCCCCA (ssRNA, 2'-F pyrimidines) [Tr20] ?
3.4

Quick check: Kd of GGUGGGAACCUAUUUAUGUCAUCGUCUGUGCCCA (ssRNA, 2'-F pyrimidines) [Tr70] ?
2.4

Quick check: Kd of GGGAGUUAUAUUUCGUCACCCGUUCCUUUGCCCCA (ssRNA, 2'-F pyrimidines) [Tr14] ?
2.2

Quick check: Kd of GGGGUGACCCUUUUUAUGACAUCGCGUCUGGCCA (ssRNA, 2'-F pyrimidines) [Tr28] ?
4
